All figures here come from patent US20040018971A1.

# Target system: HLA-A*6801 (human)
# Assay method text: inhibition of 125I probe peptide binding to purified HLA
# Stated conditions: remark: other sources report otherwise
Outcome measure: IC50 (nM)
Enter your answer as a number in nM; do not include the unit.

Per the record, VVFGILIKRR [Her2/neu.669 (AA 10)] has IC50 of 15
